procedureSummary: Plasma elimination half life, dog, i.v.
Type: in vivo
details: iv
Structures can show the parent of a compound that is named as a salt.
propertyName: half-life (h)
One number for each entry, in h.

Exercise: Read off the recorded half-life for COc1cc(Cl)c(C(=O)N=C(N)N)cc1C(F)(F)F [Example 1, hydrochloride]
Solution: 1.1

* * *

measurementTarget: rabbit erythrocyte Na^+ /H^+ exchanger (Oryctolagus cuniculus, UniProt P23791)
Construct: determine the Na+influx into the erythrocytes by way of Na^+ /H^+ exchange; endogenous in cells
Sequence (P23791 whole entry): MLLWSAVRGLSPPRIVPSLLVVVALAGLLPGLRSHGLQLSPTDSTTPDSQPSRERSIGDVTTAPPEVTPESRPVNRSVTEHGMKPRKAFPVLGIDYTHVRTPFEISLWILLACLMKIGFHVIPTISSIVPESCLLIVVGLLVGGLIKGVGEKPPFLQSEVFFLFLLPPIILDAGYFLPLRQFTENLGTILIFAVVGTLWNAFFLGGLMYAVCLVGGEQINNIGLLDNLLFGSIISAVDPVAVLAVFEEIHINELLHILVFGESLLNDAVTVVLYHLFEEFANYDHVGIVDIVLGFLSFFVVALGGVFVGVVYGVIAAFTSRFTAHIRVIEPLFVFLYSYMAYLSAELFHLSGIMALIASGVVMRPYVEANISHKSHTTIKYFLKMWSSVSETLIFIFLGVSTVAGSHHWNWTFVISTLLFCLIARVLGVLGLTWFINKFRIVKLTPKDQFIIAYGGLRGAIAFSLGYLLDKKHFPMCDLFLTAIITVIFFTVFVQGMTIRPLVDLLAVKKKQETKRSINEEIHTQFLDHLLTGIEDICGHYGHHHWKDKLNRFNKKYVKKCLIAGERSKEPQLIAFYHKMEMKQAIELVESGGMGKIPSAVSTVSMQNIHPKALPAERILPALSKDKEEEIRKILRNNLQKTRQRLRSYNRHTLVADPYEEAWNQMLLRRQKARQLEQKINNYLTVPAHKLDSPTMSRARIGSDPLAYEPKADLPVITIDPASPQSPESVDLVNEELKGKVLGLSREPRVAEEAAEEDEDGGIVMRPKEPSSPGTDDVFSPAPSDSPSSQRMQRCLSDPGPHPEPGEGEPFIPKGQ
procedureSummary: Inhibition of the rabbit erythrocyte Na^+ /H^+ exchanger (amiloride-sensitive sodium influx, flame photometry)
details: rabbit erythrocytes, cholesterol-fed, 37° C., pH 7.4
Counter-ions that a name gives are not always drawn.
propertyName: IC50 (nM)
One number for each entry, in nM.

Take a look at these entries with their results.
# molecule, measurementTarget, IC50, nM
measured = [
    ("NC(N)=NC(=O)c1cc(C(F)(F)F)c(C2CCCC2)cc1Cl [Example 7, hydrochloride]", "rabbit erythrocyte Na^+ /H^+ exchanger (Oryctolagus cuniculus, UniProt P23791)", 30),
    ("CCCc1cc(Cl)c(C(=O)N=C(N)N)cc1C(F)(F)F [Example 8, hydrochloride]", "rabbit erythrocyte Na^+ /H^+ exchanger (Oryctolagus cuniculus, UniProt P23791)", 10),
    ("COc1cc(Cl)c(C(=O)N=C(N)N)cc1C(F)(F)F [Example 1, hydrochloride]", "rabbit erythrocyte Na^+ /H^+ exchanger (Oryctolagus cuniculus, UniProt P23791)", 20),
]

Below are some molecules; for each one, tell me its IC50.
1. CC(C)c1cc(C(F)(F)F)cc(C(=O)N=C(N)N)c1Cl [Example 5, hydrochloride]
2. NC(N)=NC(=O)c1cc(C(F)(F)F)cc(C2CCCC2)c1Cl [Example 6, hydrochloride]
3. CCCc1cc(C(F)(F)F)cc(C(=O)N=C(N)N)c1Cl [Example 4, hydrochloride]
4. NC(N)=NC(=O)c1cc(C(F)(F)F)cc(I)c1Cl [Example 2, hydrochloride]

Solution:
[20, 60, 70, 50]
